Origin of values: ChEMBL document CHEMBL1139233

targetOrSystem: C-X-C chemokine receptor type 4 (Homo sapiens, UniProt P61073)
Sequence (P61073 whole entry): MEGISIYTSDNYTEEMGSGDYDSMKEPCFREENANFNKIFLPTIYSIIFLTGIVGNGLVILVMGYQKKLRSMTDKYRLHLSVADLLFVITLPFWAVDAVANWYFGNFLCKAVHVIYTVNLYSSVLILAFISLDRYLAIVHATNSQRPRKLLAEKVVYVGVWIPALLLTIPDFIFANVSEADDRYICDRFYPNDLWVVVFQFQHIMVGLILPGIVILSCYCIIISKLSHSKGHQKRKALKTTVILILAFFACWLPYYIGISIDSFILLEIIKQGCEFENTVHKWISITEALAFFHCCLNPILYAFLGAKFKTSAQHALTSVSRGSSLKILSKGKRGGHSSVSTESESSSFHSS
testDescription: Inhibition of [125I]SDF1 binding to CXCR4 transfected in CHO cells
Type: cell-based
pIC50: −log10 of the molar value.
recordedMetric: pIC50

chemsmiles=N=C(N)NCCC[C@@H]1NC(=O)[C@@H](CCCNC(=N)N)NC(=O)[C@@H](Cc2ccc(O)cc2)NC(=O)[C@@H]2CCCCN2C(=O)[C@H](Cc2ccc3ccccc3c2)NC1=O targetorsystem="C-X-C chemokine receptor type 4 (Homo sapiens, UniProt P61073)" recordedmetric=pIC50 reportedresult=6.19
chemsmiles=C[C@@H]1NC(=O)[C@H](CCCNC(=N)N)NC(=O)[C@@H](Cc2ccc(O)cc2)NC(=O)CNC(=O)[C@H](Cc2ccc3ccccc3c2)NC1=O targetorsystem="C-X-C chemokine receptor type 4 (Homo sapiens, UniProt P61073)" recordedmetric=pIC50 reportedresult="< 6.00"
chemsmiles=N=C(N)NCCC[C@@H]1NC(=O)[C@H](CCCNC(=N)N)NC(=O)[C@@H](Cc2ccc(O)cc2)NC(=O)[C@H]2CCCCN2C(=O)[C@H](Cc2ccc3ccccc3c2)NC1=O targetorsystem="C-X-C chemokine receptor type 4 (Homo sapiens, UniProt P61073)" recordedmetric=pIC50 reportedresult="< 6.00"

---

targetOrSystem: C-X-C chemokine receptor type 4 (Homo sapiens)
testDescription: Inhibition of [125I]SDF1 binding to CXCR4 transfected in CHO cells
Format: cell-based
recordedMetric: IC50

chemsmiles=C[C@H]1NC(=O)[C@H](Cc2ccc3ccccc3c2)NC(=O)[C@H](CCCNC(=N)N)NC(=O)[C@H](CCCNC(=N)N)NC(=O)[C@@H](Cc2ccc(O)cc2)NC1=O recordedmetric=IC50 reportedresult="0.011 µM"
chemsmiles=C[C@H]1NC(=O)CNC(=O)[C@H](Cc2ccc3ccccc3c2)NC(=O)[C@H](CCCNC(=N)N)NC(=O)[C@H](CCCNC(=N)N)NC1=O recordedmetric=IC50 reportedresult="> 1 µM"
chemsmiles=N=C(N)NCCC[C@@H]1NC(=O)[C@@H](CCCNC(=N)N)NC(=O)[C@@H](Cc2ccc(O)cc2)NC(=O)[C@@H]2CCCN2C(=O)[C@H](Cc2ccc3ccccc3c2)NC1=O recordedmetric=IC50 reportedresult="> 1 µM"

---

# pIC50 listing for each entry below
targetOrSystem: C-X-C chemokine receptor type 4 (Homo sapiens, UniProt P61073)
testDescription: Inhibition of [125I]SDF1 binding to CXCR4 transfected in CHO cells
Type: cell-based
pIC50: −log10 of the molar value.
recordedMetric: pIC50

chemsmiles=N=C(N)NCCC[C@@H]1NC(=O)[C@H](CCCNC(=N)N)NC(=O)[C@@H](Cc2ccc(O)cc2)NC(=O)[C@@H]2CCCCN2C(=O)[C@H](Cc2ccc3ccccc3c2)NC1=O recordedmetric=pIC50 reportedresult="< 6.00"
chemsmiles=N=C(N)NCCC[C@@H]1NC(=O)[C@@H](CCCNC(=N)N)NC(=O)[C@@H](Cc2ccc(O)cc2)NC(=O)CCNC(=O)[C@H](Cc2ccc3ccccc3c2)NC1=O recordedmetric=pIC50 reportedresult=6.46
chemsmiles=CN1C(=O)[C@H](CCCNC(=N)N)NC(=O)[C@@H](Cc2ccc(O)cc2)NC(=O)CNC(=O)[C@H](Cc2ccc3ccccc3c2)NC(=O)[C@@H]1CCCNC(=N)N recordedmetric=pIC50 reportedresult=7.00
chemsmiles=C[C@@H]1NC(=O)[C@H](CCCNC(=N)N)NC(=O)[C@H](CCCNC(=N)N)NC(=O)[C@@H](Cc2ccc(O)cc2)NC(=O)CNC1=O recordedmetric=pIC50 reportedresult="< 6.00"
chemsmiles=N=C(N)NCCC[C@@H]1NC(=O)[C@H](CCCNC(=N)N)NC(=O)[C@@H](Cc2ccc(O)cc2)NC(=O)[C@@H]2CCCN2C(=O)[C@H](Cc2ccc3ccccc3c2)NC1=O recordedmetric=pIC50 reportedresult="< 6.00"
chemsmiles=N=C(N)NCCC[C@@H]1NC(=O)[C@@H](CCCNC(=N)N)NC(=O)[C@@H](Cc2ccc(O)cc2)NC(=O)[C@H]2CCCCN2C(=O)[C@H](Cc2ccc3ccccc3c2)NC1=O recordedmetric=pIC50 reportedresult="< 6.00"

---

targetOrSystem: C-X-C chemokine receptor type 4 (Homo sapiens, UniProt P61073)
testDescription: Inhibition of [125I]SDF1 binding to CXCR4 transfected in CHO cells
Format: cell-based
recordedConditions: cho
recordedMetric: IC50

chemsmiles=C[C@@H]1NC(=O)[C@H](CCCNC(=N)N)NC(=O)[C@H](CCCNC(=N)N)NC(=O)[C@@H](Cc2ccc(O)cc2)NC(=O)CN(C)C1=O recordedmetric=IC50 reportedresult="0.167 µM"

---

targetOrSystem: C-X-C chemokine receptor type 4 (Homo sapiens, UniProt P61073)
testDescription: Inhibition of [125I]SDF1 binding to CXCR4 transfected in CHO cells
Format: cell-based
pIC50: −log10 of the molar value.
recordedMetric: pIC50

chemsmiles=N=C(N)NCCC[C@@H]1NC(=O)[C@@H](CCCNC(=N)N)NC(=O)[C@@H](Cc2ccc(O)cc2)NC(=O)[C@H]2CCCN2C(=O)[C@H](Cc2ccc3ccccc3c2)NC1=O recordedmetric=pIC50 valuemodifier=< reportedresult=6.00
chemsmiles=CN1C(=O)CNC(=O)[C@H](Cc2ccc3ccccc3c2)NC(=O)[C@H](CCCNC(=N)N)NC(=O)[C@@H](CCCNC(=N)N)NC(=O)[C@H]1Cc1ccc(O)cc1 recordedmetric=pIC50 valuemodifier== reportedresult=6.80
chemsmiles=CN1C(=O)CNC(=O)[C@H](Cc2ccc3ccccc3c2)NC(=O)[C@H](CCCNC(=N)N)NC(=O)[C@H](CCCNC(=N)N)NC(=O)[C@H]1Cc1ccc(O)cc1 recordedmetric=pIC50 valuemodifier== reportedresult=6.89
chemsmiles=CN1C(=O)[C@@H](CCCNC(=N)N)NC(=O)[C@@H](Cc2ccc(O)cc2)NC(=O)CNC(=O)[C@H](Cc2ccc3ccccc3c2)NC(=O)[C@@H]1CCCNC(=N)N recordedmetric=pIC50 valuemodifier== reportedresult=7.68
chemsmiles=N=C(N)NCCC[C@@H]1NC(=O)[C@H](CCCNC(=N)N)NC(=O)[C@@H](Cc2ccc(O)cc2)NC(=O)CCNC(=O)[C@H](Cc2ccc3ccccc3c2)NC1=O recordedmetric=pIC50 valuemodifier== reportedresult=7.33
chemsmiles=CN1C(=O)[C@@H](Cc2ccc(O)cc2)NC(=O)CNC(=O)[C@H](Cc2ccc3ccccc3c2)NC(=O)[C@H](CCCNC(=N)N)NC(=O)[C@H]1CCCNC(=N)N recordedmetric=pIC50 valuemodifier== reportedresult=8.52
chemsmiles=CN1CC(=O)N[C@H](Cc2ccc(O)cc2)C(=O)N[C@H](CCCNC(=N)N)C(=O)N[C@@H](CCCNC(=N)N)C(=O)N[C@@H](Cc2ccc3ccccc3c2)C1=O recordedmetric=pIC50 valuemodifier== reportedresult=6.59
chemsmiles=C[C@@H]1NC(=O)[C@H](Cc2ccc3ccccc3c2)NC(=O)[C@H](CCCNC(=N)N)NC(=O)[C@@H](CCCNC(=N)N)NC(=O)[C@@H](Cc2ccc(O)cc2)NC1=O recordedmetric=pIC50 valuemodifier== reportedresult=7.04
